- protocol.notes: Metabolic stability in CD1 mouse liver microsomes assessed as intrinsic clearance measured upto 60 mins by LC-MS/MS analysis
- Assay type: ADME
- recorded.conditions: read-out: CLH
endpoint.name: microsomal CLint (µL/min/mg)

a. CCCn1c(NC(=O)Cc2ccc(F)cc2)nc2cc(F)c(F)cc21
b. N#Cc1ccc2nc(NC(=O)c3ccc(C(F)(F)F)nc3)n(C3CC3)c2c1
c. COCCn1c(NC(=O)c2ccnn2C)nc2ccc(C#N)cc21
d. CCCn1c(NC(=O)c2ccccn2)nc2cccnc21
Problem: Order required: smallest reported microsomal CLint first, largest last, for all compounds above. Reply with the item labels sorted in the order that was asked for.
Result: c, d, a, b
(c: 98 µL/min/mg, d: 265 µL/min/mg, a: 399 µL/min/mg, b: 1350 µL/min/mg)

1. CCCn1c(NC(=O)Cc2ccc(Cl)cc2)nc2ccccc21
2. Cn1nc(C(F)(F)F)cc1C(=O)Nc1nc2ccc(C#N)cc2n1CCF
Problem: Short answer wanted: higher microsomal CLint, 1 or 2 ? Give the label under which the chosen entry appears.
Result: 1

a. COc1ccc(C(=O)Nc2nc3ccc(C#N)cc3n2CC(F)(F)F)cn1
b. CCCn1c(NC(=O)Cc2ccc(Cl)cc2)nc2cc(F)ccc21
c. CCCn1c(NC(=O)Cc2cc(F)ccc2F)nc2cc(F)c(F)cc21
Problem: I would appreciate it if you could sort these 3 compounds by microsomal CLint, starting from the smallest number. Reply with the item labels sorted in the order that was asked for.
Result: a, c, b
(a: 170 µL/min/mg, c: 389 µL/min/mg, b: 1510 µL/min/mg)

A. CC(C)(C)Cn1c(NC(=O)c2cccnc2)nc2cc(F)c(F)cc21
B. CN1CCC(n2c(NC(=O)c3ccnn3C)nc3ccc(C#N)cc32)CC1
Problem: Smaller microsomal CLint value? Options are A and B Give the label under which the chosen entry appears.
Result: B
(B: 72 µL/min/mg, A: 131 µL/min/mg)

* * *

- Tested on: Trypanosoma cruzi
- protocol.notes: Antitrypanosomal activity against Trypanosoma cruzi Tulahuen CL2 amastigotes expressing beta galactosidase infected in human MRC5 cells assessed as reduction in parasite burden using chlorophenol red beta-D-galactopyranoside as substrate and measured after 7 days by spectrophotometric analysis
- Format: functional, organism-based
- recorded.conditions: Tulahuen CL2, MRC5, 168 h
endpoint.name: IC50 (µM)
Write the value in µM as a bare number.

{"smiles.notation": "CCCn1c(NC(=O)c2cccnc2)nc2ccc(C#N)cc21", "IC50 / µM": 18}
{"smiles.notation": "N#Cc1ccc2nc(NC(=O)Cn3cccn3)n(CC(F)(F)F)c2c1", "IC50 / µM": 6.6}
{"smiles.notation": "CC(C)(C)Cn1c(NC(=O)c2cccnc2)nc2cc(F)c(F)cc21", "IC50 / µM": 0.8}
{"smiles.notation": "Cn1ccc(C(=O)Nc2nc3ccc(C#N)cc3n2CC(F)(F)F)n1", "IC50 / µM": 64}
{"smiles.notation": "Cn1nccc1C(=O)Nc1nc2cc(CN3CCOCC3)ccc2n1CC(F)(F)F", "IC50 / µM": 8.3}
{"smiles.notation": "Cn1nccc1C(=O)Nc1nc2cc(-c3ncco3)ccc2n1CC(F)(F)F", "IC50 / µM": 38}
{"smiles.notation": "N#Cc1ccc2nc(NC(=O)c3cc(C(F)(F)F)n[nH]3)n(CC(F)(F)F)c2c1", "IC50 / µM": 1.5}
{"smiles.notation": "CCCn1c(NC(=O)Cc2ccc(F)cc2)nc2cc(F)c(F)cc21", "IC50 / µM": 0.53}

Problem: Name the recorded IC50 for `Cn1nccc1C(=O)Nc1nc2cc(S(C)(=O)=O)ccc2n1CC(F)(F)F` .
Result: 2.2

Problem: Lookup `CC(C)(C)Cn1c(NC(=O)c2ccc(C(F)(F)F)nc2)nc2ccc(C#N)cc21`
Result: 52

Problem: Lookup `CC(C)(O)Cn1c(NC(=O)c2ccc(C(F)(F)F)nc2)nc2ccc(C#N)cc21`
Result: 37

Problem: Lookup `CCCn1c(NC(=O)c2ccccn2)nc2cccnc21`
Result: 8.4

Problem: Lookup `O=C(Nc1nc2ccc(F)cc2n1CC(F)(F)F)c1ccc(C(F)(F)F)nc1`
Result: 42

Problem: Lookup `CCCn1c(NC(=O)c2cccc(C(F)(F)F)n2)nc2ccc(F)cc21`
Result: 2.3

* * *

- protocol.notes: Metabolic stability in CD1 mouse liver microsomes assessed as intrinsic clearance measured upto 60 mins by LC-MS/MS analysis
- Format: ADME
- recorded.conditions: read-out: CLH
endpoint.name: microsomal CLint (µL/min/mg)

Examples with answers:
{"smiles.notation": "Cn1nccc1C(=O)Nc1nc2cc(CN3CCOCC3)ccc2n1CC(F)(F)F", "microsomal CLint (µL/min/mg)": 23}
{"smiles.notation": "Cn1nccc1C(=O)Nc1nc2cc(C(F)(F)F)cnc2n1CC(C)(C)C", "microsomal CLint (µL/min/mg)": 37}
{"smiles.notation": "Cn1nccc1C(=O)Nc1nc2cncnc2n1CC(F)(F)F", "microsomal CLint (µL/min/mg)": 24}
{"smiles.notation": "Cc1nnn(CC(=O)Nc2nc3ccc(C#N)cc3n2CC(F)(F)F)n1", "microsomal CLint (µL/min/mg)": 25}
{"smiles.notation": "N#Cc1ccc2nc(NC(=O)c3ncc(F)cc3F)n(CC(F)(F)F)c2c1", "microsomal CLint (µL/min/mg)": 253}
{"smiles.notation": "Cn1ccc(C(=O)Nc2nc3ccc(C#N)cc3n2CC(F)(F)F)n1", "microsomal CLint (µL/min/mg)": 73}
{"smiles.notation": "Cn1nccc1C(=O)Nc1nc2cc(-c3ncco3)ccc2n1CC(F)(F)F", "microsomal CLint (µL/min/mg)": 52.7}
{"smiles.notation": "Cn1nccc1C(=O)Nc1nc2cc(F)cnc2n1CC(F)(F)F", "microsomal CLint (µL/min/mg)": 44}

a. CCCn1c(NC(=O)c2cccc(C(F)(F)F)n2)nc2ccc(F)cc21
b. CCCn1c(NC(=O)c2cccc(C(F)(F)F)n2)nc2cccnc21
c. Cn1nc(C(=O)Nc2nc3ccc(C#N)cc3n2CC(F)(F)F)cc1C(F)(F)F
d. Cn1nccc1C(=O)Nc1nc2cc(C#N)cnc2n1CC(C)(C)C
Problem: I would appreciate it if you could sort these 4 compounds by microsomal CLint, starting from the smallest number. Reply with the item labels sorted in the order that was asked for.
Result: d, c, b, a
(d: 31 µL/min/mg, c: 77 µL/min/mg, b: 285 µL/min/mg, a: 467 µL/min/mg)

* * *

- Tested on: Trypanosoma cruzi
- protocol.notes: Antitrypanosomal activity against intracellular Trypanosoma cruzi amastigote infected primary peritoneal mouse macrophages assessed as reduction in amastigote population measured after 96 hrs
- Type: functional, organism-based
- recorded.conditions: time 96 hrs
endpoint.name: IC90 (nM)

P. Cn1nc(C(F)(F)F)cc1C(=O)Nc1nc2ccc(C#N)cc2n1CC(F)(F)F
Q. N#Cc1ccc2nc(NC(=O)c3cc(C(F)(F)F)n[nH]3)n(CC(F)(F)F)c2c1
Problem: Smaller IC90 value? Options are P and Q Give the label under which the chosen entry appears.
Result: P

* * *

- protocol.notes: Selectivity index, ratio of CC50 for cytotoxicity against human MRC5 cells to EC50 for Trypanosoma cruzi Tulahuen CL2 amastigotes expressing beta galactosidase infected in human MRC5 cells
- Type: toxicity, cell-based
- recorded.conditions: read-out: Selectivity Index
endpoint.name: selectivity ratio
The answer should be written as a number, with no unit following it.

Examples with answers:
{"smiles.notation": "Cn1nc(C(F)(F)F)cc1C(=O)Nc1nc2cncnc2n1CC(F)(F)F", "selectivity ratio": 7}
{"smiles.notation": "Cn1nccc1C(=O)Nc1nc2cc(C(F)(F)F)cnc2n1CC(C)(C)C", "selectivity ratio": 7}
{"smiles.notation": "N#Cc1ccc2nc(NC(=O)c3ncc(F)cc3F)n(CC(F)(F)F)c2c1", "selectivity ratio": 3}
{"smiles.notation": "CC(C)(C)Cn1c(NC(=O)c2cc(C(F)(F)F)n[nH]2)nc2cc(C#N)cnc21", "selectivity ratio": 3}

Problem: Name the recorded selectivity ratio for `O=C(Nc1nc2cncnc2n1CC(F)(F)F)c1ccnc(C(F)(F)F)c1` .
Result: 5

Problem: Lookup `CCCn1c(NC(=O)Cc2ccc(Cl)cc2)nc2ccc(F)cc21`
Result: 102

* * *

- protocol.notes: Selectivity index, ratio of CC50 for cytotoxicity against human MRC5 cells to EC50 for Trypanosoma cruzi Tulahuen CL2 amastigotes expressing beta galactosidase infected in human MRC5 cells
- Format: toxicity, cell-based
- recorded.conditions: read-out: Selectivity Index
Catalogue of selectivity ratio values
The answer should be written as a number, with no unit following it.

Examples with answers:
{"smiles.notation": "Cn1nccc1C(=O)Nc1nc2ccc(C#N)cc2n1CCF", "experimental.result": 2}
{"smiles.notation": "Cn1nccc1C(=O)Nc1nc2cc(CN3CCCC3)ccc2n1CC(F)(F)F", "experimental.result": 2}

Problem: Name the recorded selectivity ratio for `O=C(Nc1nc2cc(F)ccc2n1C1CCOCC1)c1cccnc1` .
Result: 5
